target_of_assay: P2X7 receptor (Homo sapiens)
Construct: stably expressing the full length P2X7 receptor
Sequence (Q99572 whole entry): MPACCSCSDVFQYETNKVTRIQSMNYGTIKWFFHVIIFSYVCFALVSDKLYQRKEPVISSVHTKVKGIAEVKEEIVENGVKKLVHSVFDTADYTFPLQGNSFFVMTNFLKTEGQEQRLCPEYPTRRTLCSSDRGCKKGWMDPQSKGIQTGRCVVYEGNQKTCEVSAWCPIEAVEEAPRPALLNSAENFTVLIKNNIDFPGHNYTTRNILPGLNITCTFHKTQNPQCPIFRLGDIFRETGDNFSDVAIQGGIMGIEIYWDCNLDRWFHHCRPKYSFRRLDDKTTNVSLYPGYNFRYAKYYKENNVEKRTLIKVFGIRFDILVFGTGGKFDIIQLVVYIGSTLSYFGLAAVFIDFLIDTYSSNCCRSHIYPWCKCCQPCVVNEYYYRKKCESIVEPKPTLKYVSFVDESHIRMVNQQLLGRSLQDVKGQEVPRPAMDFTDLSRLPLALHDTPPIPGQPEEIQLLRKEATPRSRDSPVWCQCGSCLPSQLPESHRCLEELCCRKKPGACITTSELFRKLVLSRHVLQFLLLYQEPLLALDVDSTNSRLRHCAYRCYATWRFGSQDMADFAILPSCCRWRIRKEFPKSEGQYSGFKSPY
assay_protocol: Ca++ flux assay (FLIPR) in P2X7-HEK-293 cell line stably expressing the full length P2X7 receptor, Bz-ATP activation
test_conditions: P2X7-HEK-293 cells; agonist Bz-ATP; fluorescence as total area over 90 seconds; read-out: P2X7 Ca Flux hu IC50
Threshold check on IC50: strictly below 50 nM is True; on or above 50 nM is False.

structure: [2H]c1c([2H])c([2H])c(CS(=O)(=O)c2nnc3c(=O)n(-c4cccc(C(F)(F)F)c4C)ccn23)c([2H])c1[2H]
class_assignment: True
//
structure: O=c1c2nnc(S(=O)(=O)Cc3cccc4ccccc34)n2ccn1-c1cccc(C(F)(F)F)c1Cl
class_assignment: True
//
structure: Cc1c(Cl)cccc1-n1ccn2c(S(=O)(=O)Cc3ccc(F)cc3Cl)nnc2c1=O
class_assignment: True
//
structure: Cc1cccc(CSc2nnc3c(=O)n(-c4cccc(Cl)c4C)ccn23)c1
class_assignment: False
//
structure: Cc1cccc(CSc2nnc3c(=O)n(-c4cccc(Cl)c4C)ccn23)c1F
class_assignment: False
//
structure: Cc1c(Cl)cccc1-n1ccn2c(SCc3ccccc3C(C)C)nnc2c1=O
class_assignment: False
//
structure: O=c1c2nnc(S(=O)(=O)C(c3ccccc3)c3ccccc3)n2ccn1-c1cccc(C(F)(F)F)c1Cl
class_assignment: False
//
structure: COc1cc(CSc2nnc3c(=O)n(-c4cccc(Cl)c4C)ccn23)cc(OC)c1
class_assignment: False

[ask] Does the reported IC50 of Cc1c(-n2ccn3c(S(=O)(=O)Cc4ccccc4Cl)nnc3c2=O)cccc1C(F)(F)F stay below 50 nM?
[reply] True

[ask] Now the same for Cc1c(Cl)cccc1-n1ccn2c(S(=O)(=O)Cc3ccccc3Br)nnc2c1=O
[reply] True

[ask] Next entry: Cc1c(Cl)cccc1-n1ccn2c(SCc3cccc(Cl)c3Cl)nnc2c1=O
[reply] False

[ask] Param item: O=c1c2nnc(SCc3ccccc3)n2ccn1-c1cccc(C(F)(F)F)c1Cl
[reply] True
